Measured inhibition of individual entries
test system: Plasmodium falciparum; assay: Inhibition of Plasmodium falciparum PFT at 50 nM

[
  {
    "molecule": "Cn1cnc(S(=O)(=O)N(Cc2ccccc2)[C@H]2CC[C@@H](N(Cc3cncn3C)c3ccc(C#N)cc3)C2)c1 (racemic)",
    "system-name": "Plasmodium falciparum",
    "inhibition, %": 40
  },
  {
    "molecule": "Cn1cnc(S(=O)(=O)N(CCCN(Cc2cncn2C)c2ccc(C#N)cc2)CC2CCN(C(=O)OC(C)(C)C)CC2)c1",
    "system-name": "Plasmodium falciparum",
    "inhibition, %": 94
  },
  {
    "molecule": "Cn1cnc(S(=O)(=O)N(CC2CCN(c3ncccn3)CC2)[C@@H]2CC[C@@H](N(Cc3cncn3C)c3ccc(C#N)cc3)C2)c1 (racemic)",
    "system-name": "Plasmodium falciparum",
    "inhibition, %": 38
  },
  {
    "molecule": "Cn1cnc(S(=O)(=O)N(Cc2ccccc2)[C@H]2CC[C@@H](N(Cc3cncn3C)c3ccc(C#N)cc3)CC2)c1",
    "system-name": "Plasmodium falciparum",
    "inhibition, %": 23
  }
]
